target-or-test-system: PDE1B (Homo sapiens, UniProt Q01064)
Construct: purchased Reaction Biology Corporation, Malvern, Pa
Sequence (Q01064 whole entry): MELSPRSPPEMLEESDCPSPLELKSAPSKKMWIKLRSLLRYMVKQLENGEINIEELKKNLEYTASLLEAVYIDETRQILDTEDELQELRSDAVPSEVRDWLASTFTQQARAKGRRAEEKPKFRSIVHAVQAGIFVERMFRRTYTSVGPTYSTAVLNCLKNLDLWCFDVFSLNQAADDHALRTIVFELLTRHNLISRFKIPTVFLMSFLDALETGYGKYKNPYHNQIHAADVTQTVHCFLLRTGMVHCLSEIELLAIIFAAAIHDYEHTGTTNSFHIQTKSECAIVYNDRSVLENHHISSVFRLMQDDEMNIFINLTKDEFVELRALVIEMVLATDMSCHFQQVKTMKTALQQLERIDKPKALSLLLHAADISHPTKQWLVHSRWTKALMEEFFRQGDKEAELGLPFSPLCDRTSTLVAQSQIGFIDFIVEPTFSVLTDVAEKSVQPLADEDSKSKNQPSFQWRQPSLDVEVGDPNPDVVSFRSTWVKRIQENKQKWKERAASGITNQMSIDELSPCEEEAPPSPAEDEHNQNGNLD
assay-overview: Phosphodiesterase enzyme screening assay, PDE1B
Assay type: biochemical
condition-notes: ratio of IC50 values, PDE1B versus PDE9A2; value greater than 1 = greater selectivity for PDE9A2
Source text: Compounds of the invention were screened against PDE1A, PDE1B, PDE2A, PDE3A, PDE3B, PDE4A1A, PDE4B1, PDE4D3, PDE5A1, PDE6C, PDE7A, PDE8A1, PDE9A2, PDE10A2 AND PDE11A isoforms of the phosphodiesterase enzyme to determine activity and overall selectivity through comparative analysis. […] Where 8-methoxy-IBMX and Zaprinast were used as reference inhibitors. […]
endpoint-label: PDE1B selectivity (versus PDE9A2)

molecule	endpoint-label	result
C[C@@H]1CN(Cc2ncccn2)C[C@H]1c1nn2c(C3CCOCC3)ncc2c(=O)[nH]1 (relative stereo) [(+)-2-((3,4-trans)-4-]	PDE1B selectivity (versus PDE9A2)	456
CC1CN(Cc2ccc(-c3ccncc3)cc2)CC1c1nn2c(C3CCOCC3)ncc2c(=O)[nH]1 (single isomer, unassigned; (-))	PDE1B selectivity (versus PDE9A2)	1560
COc1ccnc(CN2CC(C)C(c3nn4c(C5CCOCC5)ncc4c(=O)[nH]3)C2)c1 (single isomer, unassigned; (+))	PDE1B selectivity (versus PDE9A2)	456

====

target-or-test-system: PDE1B (Homo sapiens, UniProt Q01064)
Construct: purchased Reaction Biology Corporation, Malvern, Pa
assay-overview: Phosphodiesterase enzyme screening assay, PDE1B
Format: biochemical
condition-notes: Table 1; ratio of IC50 values; value greater than 1 indicates greater selectivity for PDE9A2
endpoint-label: PDE1B selectivity (versus PDE9A2)

compound	target-or-test-system	numeric-readout
CC1CN(Cc2ccnc3ccccc23)CC1c1nn2c(C3CCOCC3)ncc2c(=O)[nH]1 (single isomer, unassigned; (+))	PDE1B (Homo sapiens, UniProt Q01064)	987
CC1CN(Cc2ncccn2)CC1c1nn2c(C3CCOCC3)ncc2c(=O)[nH]1 (single isomer, unassigned; (+)) [(+)-2-((3,4-trans)-4-methyl-1-(pyrimidin-2-ylmethyl)pyrrolid]	PDE1B (Homo sapiens, UniProt Q01064)	386
C[C@@H]1CN(Cc2cn3ncccc3n2)C[C@H]1c1nn2c(C3CCOCC3)ncc2c(=O)[nH]1 (relative stereo)	PDE1B (Homo sapiens, UniProt Q01064)	1413
CC1CN(Cc2cc(Cl)ccc2Cl)CC1c1nn2c(C3CCOCC3)ncc2c(=O)[nH]1 (single isomer, unassigned; (+))	PDE1B (Homo sapiens, UniProt Q01064)	90
CC1CN(Cc2cc(Cl)cc(Cl)c2)CC1c1nn2c(C3CCOCC3)ncc2c(=O)[nH]1 (single isomer, unassigned; (+))	PDE1B (Homo sapiens, UniProt Q01064)	92
CC1CN(Cc2ccccc2)CC1c1nn2c(C3CCC(F)(F)CC3)ncc2c(=O)[nH]1 (single isomer, unassigned; (+))	PDE1B (Homo sapiens, UniProt Q01064)	496
CC1CN(Cc2ccc3ccccc3n2)CC1c1nn2c(C3CCOCC3)ncc2c(=O)[nH]1 (single isomer, unassigned; (-)) [(−)-2-((3,4-trans)-4-methyl-1-(quinolin-2-ylmethyl)pyrrolidi]	PDE1B (Homo sapiens, UniProt Q01064)	48
CC1CN(Cc2cccc(C#N)c2)CC1c1nn2c(C3CCOCC3)ncc2c(=O)[nH]1 (single isomer, unassigned; (+))	PDE1B (Homo sapiens, UniProt Q01064)	343
CC1CN(Cc2ccc(F)cc2)CC1c1nn2c(C3CCC(F)(F)CC3)ncc2c(=O)[nH]1 (single isomer, unassigned; (+))	PDE1B (Homo sapiens, UniProt Q01064)	2980
CC1CN(Cc2ccc(Br)cc2)CC1c1nn2c(C3CCOCC3)ncc2c(=O)[nH]1 (single isomer, unassigned; (+))	PDE1B (Homo sapiens, UniProt Q01064)	1105
CC1CN(Cc2ccc(Cl)c(Cl)c2)CC1c1nn2c(C3CCOCC3)ncc2c(=O)[nH]1 (single isomer, unassigned; (+))	PDE1B (Homo sapiens, UniProt Q01064)	2627
CC1CN(Cc2ncccn2)CC1c1nn2c(C3CCC(F)(F)CC3)ncc2c(=O)[nH]1 (single isomer, unassigned; (+))	PDE1B (Homo sapiens, UniProt Q01064)	313
Cc1ncc(CN2CC(C)C(c3nn4c(C5CCOCC5)ncc4c(=O)[nH]3)C2)s1 (single isomer, unassigned; (+))	PDE1B (Homo sapiens, UniProt Q01064)	243
CC1CN(Cc2ccccc2N(C)C)CC1c1nn2c(C3CCOCC3)ncc2c(=O)[nH]1 (single isomer, unassigned; (+))	PDE1B (Homo sapiens, UniProt Q01064)	279
COc1cccc(CN2CC(C)C(c3nn4c(C5CCOCC5)ncc4c(=O)[nH]3)C2)c1 (single isomer, unassigned; (+))	PDE1B (Homo sapiens, UniProt Q01064)	477
CC1CN(Cc2ccnnc2)CC1c1nn2c(C3CCOCC3)ncc2c(=O)[nH]1 (single isomer, unassigned; (+))	PDE1B (Homo sapiens, UniProt Q01064)	99
Cc1ncc(CN2CC(C)C(c3nn4c(C5CCOCC5)ncc4c(=O)[nH]3)C2)cn1 (single isomer, unassigned; (+))	PDE1B (Homo sapiens, UniProt Q01064)	60
CC1CN(Cc2cccc(-n3cccn3)c2)CC1c1nn2c(C3CCOCC3)ncc2c(=O)[nH]1 (single isomer, unassigned; (+))	PDE1B (Homo sapiens, UniProt Q01064)	1490
CC1CN(Cc2ccc(Cl)cc2)CC1c1nn2c(C3CCC(F)(F)CC3)ncc2c(=O)[nH]1 (single isomer, unassigned; (+))	PDE1B (Homo sapiens, UniProt Q01064)	1210
CC1CN(Cc2ncc3ccccc3n2)CC1c1nn2c(C3CCOCC3)ncc2c(=O)[nH]1 (single isomer, unassigned; (+)) [(+)-2-((3,4-trans)-4-methyl-1-(quinazolin-2-ylmethyl)pyrroli]	PDE1B (Homo sapiens, UniProt Q01064)	1360
CC1CN(Cc2ccc3nccn3n2)CC1c1nn2c(C3CCOCC3)ncc2c(=O)[nH]1 (single isomer, unassigned; (+))	PDE1B (Homo sapiens, UniProt Q01064)	633
CC1CN(Cc2nc3ccccc3n2C)CC1c1nn2c(C3CCOCC3)ncc2c(=O)[nH]1 (single isomer, unassigned; (+))	PDE1B (Homo sapiens, UniProt Q01064)	356
CC1CN(Cc2cccc(Cl)c2)CC1c1nn2c(C3CCOCC3)ncc2c(=O)[nH]1 (single isomer, unassigned; (+))	PDE1B (Homo sapiens, UniProt Q01064)	331
CC1CN(Cc2ccc[nH]c2=O)CC1c1nn2c(C3CCOCC3)ncc2c(=O)[nH]1 (single isomer, unassigned; (+))	PDE1B (Homo sapiens, UniProt Q01064)	940
CC1CN(Cc2ccc3cccnc3c2)CC1c1nn2c(C3CCOCC3)ncc2c(=O)[nH]1 (single isomer, unassigned; (-))	PDE1B (Homo sapiens, UniProt Q01064)	2610
CC1CN(C)CC1c1nn2c(C3CCOCC3)ncc2c(=O)[nH]1 (single isomer, unassigned; (+))	PDE1B (Homo sapiens, UniProt Q01064)	121

====

target-or-test-system: PDE1A (Homo sapiens, UniProt P54750)
Construct: purchased Reaction Biology Corporation, Malvern, Pa
Sequence (P54750 whole entry): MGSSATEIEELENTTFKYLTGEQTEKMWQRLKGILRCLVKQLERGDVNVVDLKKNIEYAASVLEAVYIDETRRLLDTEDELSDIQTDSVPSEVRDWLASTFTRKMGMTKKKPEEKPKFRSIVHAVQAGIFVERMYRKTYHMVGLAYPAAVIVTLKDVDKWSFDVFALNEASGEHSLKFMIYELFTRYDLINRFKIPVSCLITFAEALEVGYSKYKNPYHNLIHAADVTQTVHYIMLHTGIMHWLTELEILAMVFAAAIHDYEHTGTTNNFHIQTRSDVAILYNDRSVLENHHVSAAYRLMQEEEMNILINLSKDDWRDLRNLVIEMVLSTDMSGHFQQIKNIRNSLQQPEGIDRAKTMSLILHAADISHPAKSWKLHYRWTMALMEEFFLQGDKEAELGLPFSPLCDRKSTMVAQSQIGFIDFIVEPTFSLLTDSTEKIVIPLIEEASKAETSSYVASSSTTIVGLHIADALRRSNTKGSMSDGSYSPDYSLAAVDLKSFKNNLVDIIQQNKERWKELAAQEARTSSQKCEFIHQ
assay-overview: Phosphodiesterase enzyme screening assay, PDE1A
Assay type: biochemical
condition-notes: ratio of IC50 values PDE1A / PDE9A2; value greater than 1 = greater selectivity for PDE9A2
Mark each entry true if its PDE1A selectivity (versus PDE9A2) sits below 200, and false for all others.

compound	classification
CC1CN(c2nccc(C(F)(F)F)n2)CC1c1nn2c(C3CCOCC3)ncc2c(=O)[nH]1 (single isomer, unassigned; (+))	true
CC1CN(Cc2cc(Cl)cc(C(F)(F)F)c2)CC1c1nn2c(C3CCOCC3)ncc2c(=O)[nH]1 (single isomer, unassigned; (+))	false
Cc1cccc(CN2CC(C)C(c3nn4c(C5CCOCC5)ncc4c(=O)[nH]3)C2)n1 (single isomer, unassigned; (+))	false
CC1CN(Cc2cc(Cl)ccc2F)CC1c1nn2c(C3CCOCC3)ncc2c(=O)[nH]1 (single isomer, unassigned; (+))	true
CC1CN(Cc2cc(F)ccc2Cl)CC1c1nn2c(C3CCOCC3)ncc2c(=O)[nH]1 (single isomer, unassigned; (+))	true
COc1ncc(CN2CC(C)C(c3nn4c(C5CCOCC5)ncc4c(=O)[nH]3)C2)cn1 (single isomer, unassigned; (+))	false

====

Recorded pIC50 for the following molecules
target-or-test-system: PDE9A2 (Homo sapiens)
Construct: purchased Reaction Biology Corporation, Malvern, Pa
Sequence (O76083 1-533 isoform O76083-2): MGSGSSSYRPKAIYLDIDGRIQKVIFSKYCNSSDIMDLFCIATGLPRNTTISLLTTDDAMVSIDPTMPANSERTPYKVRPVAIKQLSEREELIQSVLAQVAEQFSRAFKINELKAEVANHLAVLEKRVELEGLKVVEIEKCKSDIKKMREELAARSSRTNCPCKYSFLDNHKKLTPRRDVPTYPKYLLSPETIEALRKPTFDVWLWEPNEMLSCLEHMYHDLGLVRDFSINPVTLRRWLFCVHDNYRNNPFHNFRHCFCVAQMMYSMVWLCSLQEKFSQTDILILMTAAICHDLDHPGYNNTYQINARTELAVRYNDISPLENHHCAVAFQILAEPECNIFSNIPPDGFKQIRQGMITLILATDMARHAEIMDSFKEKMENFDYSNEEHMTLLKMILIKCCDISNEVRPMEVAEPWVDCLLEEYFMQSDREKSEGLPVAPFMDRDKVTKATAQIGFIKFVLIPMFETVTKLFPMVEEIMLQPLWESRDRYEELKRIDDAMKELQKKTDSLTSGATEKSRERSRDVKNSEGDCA
assay-overview: Phosphodiesterase enzyme screening assay, PDE9A2
Format: biochemical
condition-notes: Table 1; 10 concentrations; 4.0 μM cGMP substrate; 1 hour at R.T.; read-out: Band (PDE9A2 IC50)
pIC50: −log10 of the molar value.

molecule	pIC50
CC1CN(Cc2nc3ccccc3n2C)CC1c1nn2c(C3CCOCC3)ncc2c(=O)[nH]1 (single isomer, unassigned; (+))	> 6.00
CC1CN(C(=O)c2ccncn2)CC1c1nn2c(C3CCOCC3)ncc2c(=O)[nH]1 (single isomer, unassigned; (-))	> 6.00
CC1CN(Cc2cccc(F)c2F)CC1c1nn2c(C3CCOCC3)ncc2c(=O)[nH]1 (single isomer, unassigned; (+))	> 6.00
CC1CN(Cc2ccc3cccnc3c2)CC1c1nn2c(C3CCOCC3)ncc2c(=O)[nH]1 (single isomer, unassigned; (-))	> 6.00
CC1CN(S(=O)(=O)c2ccc(C#N)cc2)CC1c1nn2c(C3CCOCC3)ncc2c(=O)[nH]1 (single isomer, unassigned; (+))	< 5.00
CC1CN(Cc2ccccc2)CC1c1nn2c(C3CCOC3)ncc2c(=O)[nH]1 (single isomer, unassigned; (-))	5.00 to 6.00
CC1CN(Cc2ccccc2)CC1c1nn2c(C3CCC(F)(F)CC3)ncc2c(=O)[nH]1 (single isomer, unassigned; (-))	> 6.00
CC1CN(c2ncccn2)CC1c1nn2c(C3CCOCC3)ncc2c(=O)[nH]1 (single isomer, unassigned; (+))	> 6.00
CC1CN(Cc2ccc3ccccc3n2)CC1c1nn2c(C3CCOCC3)ncc2c(=O)[nH]1 (single isomer, unassigned; (-)) [(−)-2-((3,4-trans)-4-methyl-1-(quinolin-2-ylmethyl)pyrrolidi]	> 6.00
CC1CN(Cc2nc3ccccn3n2)CC1c1nn2c(C3CCOCC3)ncc2c(=O)[nH]1 (single isomer, unassigned; (+))	> 6.00
CC1CN(Cc2cccc(C#N)c2)CC1c1nn2c(C3CCOCC3)ncc2c(=O)[nH]1 (single isomer, unassigned; (-))	> 6.00
CC1CN(Cc2ccccc2C#N)CC1c1nn2c(C3CCOCC3)ncc2c(=O)[nH]1 (single isomer, unassigned; (+))	> 6.00
CC1CN(Cc2ccccc2)CC1c1nn2c(C3CCN(C(=O)OC(C)(C)C)CC3)ncc2c(=O)[nH]1 (single isomer, unassigned; (+))	5.00 to 6.00

Origin of the recorded values: patent US9969742B2
